Attribute: pIC50
- study system: human KDR kinase (Homo sapiens)
- Sequence (P35968 20-1356): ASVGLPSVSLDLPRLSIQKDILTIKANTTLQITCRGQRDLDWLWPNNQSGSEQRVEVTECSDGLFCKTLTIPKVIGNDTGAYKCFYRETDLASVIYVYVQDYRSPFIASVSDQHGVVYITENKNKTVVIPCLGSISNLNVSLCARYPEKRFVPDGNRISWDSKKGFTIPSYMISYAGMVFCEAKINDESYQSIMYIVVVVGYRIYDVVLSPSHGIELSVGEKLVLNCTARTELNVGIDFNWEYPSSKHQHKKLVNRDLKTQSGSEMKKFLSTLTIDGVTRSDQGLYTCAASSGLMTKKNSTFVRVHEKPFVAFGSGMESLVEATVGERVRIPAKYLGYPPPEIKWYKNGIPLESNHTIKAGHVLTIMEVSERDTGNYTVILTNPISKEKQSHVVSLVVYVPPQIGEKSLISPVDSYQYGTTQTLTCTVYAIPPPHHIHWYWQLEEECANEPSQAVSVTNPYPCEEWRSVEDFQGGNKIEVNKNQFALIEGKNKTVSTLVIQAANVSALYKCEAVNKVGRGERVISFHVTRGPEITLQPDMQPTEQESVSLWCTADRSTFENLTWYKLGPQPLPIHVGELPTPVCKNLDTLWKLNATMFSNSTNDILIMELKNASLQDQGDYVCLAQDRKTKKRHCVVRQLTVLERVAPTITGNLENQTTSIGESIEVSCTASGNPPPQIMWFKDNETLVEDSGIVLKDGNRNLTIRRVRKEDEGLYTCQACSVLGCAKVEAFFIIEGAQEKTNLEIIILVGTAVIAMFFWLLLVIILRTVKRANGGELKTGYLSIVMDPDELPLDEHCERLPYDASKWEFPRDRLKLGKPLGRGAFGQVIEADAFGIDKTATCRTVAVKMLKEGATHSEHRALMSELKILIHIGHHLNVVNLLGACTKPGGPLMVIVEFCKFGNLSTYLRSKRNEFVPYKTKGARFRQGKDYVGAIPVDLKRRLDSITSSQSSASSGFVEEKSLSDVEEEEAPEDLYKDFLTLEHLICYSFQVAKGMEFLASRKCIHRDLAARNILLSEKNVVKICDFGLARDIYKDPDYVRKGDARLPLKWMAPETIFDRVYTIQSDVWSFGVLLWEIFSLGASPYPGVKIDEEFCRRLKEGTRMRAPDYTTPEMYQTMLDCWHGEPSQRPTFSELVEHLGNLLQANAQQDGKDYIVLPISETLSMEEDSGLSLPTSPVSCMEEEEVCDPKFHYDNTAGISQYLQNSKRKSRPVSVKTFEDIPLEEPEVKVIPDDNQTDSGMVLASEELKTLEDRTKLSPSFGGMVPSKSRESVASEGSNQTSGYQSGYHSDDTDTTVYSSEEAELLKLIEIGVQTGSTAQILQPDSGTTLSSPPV
Note on pIC50: it is the negative log10 of concentration, concentration in mol/L.

CC(C)(O)c1ccc(-c2cc(-c3ccc(N4C5CC6CC4CC(NC(=O)c4ncccc4Cl)(C6)C5)nc3)c3c(C#N)cnn3c2)nc1: 8.38

# evaluate next
# returns recorded pIC50 (system: human KDR kinase (Homo sapiens)) for COc1ccc(CN2C3CC2CN(c2ccc(-c4cc(-c5ccc(C(C)(C)NC(C)=O)cn5)cn5ncc(C#N)c45)cn2)C3)cn1
8.70

* * *

- Test system: BAF3 cells
- protocol: BAF3 Cell Proliferation Assay (CellTiter-Glo, without RET driven, IL-3)
- Assay type: cell-based
- test settings: Mus musculus; growth inhibition in BAF3 cells, 72 hours, with IL-3; read-out: BAF3 Cellular Activity
measured endpoint: IC50 (nM)
Lab book: enter the figure in nM, no units written.

COc1ccc(CN2C3CC2CN(c2ccc(-c4cc(-c5ncc(C(C)(C)O)cc5F)cn5ncc(C#N)c45)cn2)C3)cn1: 2540

Quick one: IC50 of COc1ccc(CN2C3CC2CN(c2ccc(-c4cc(-c5cc(C(C)(C)O)n(C)n5)cn5ncc(C#N)c45)cn2)C3)cn1 ?
2220

* * *

Measured IC50 by item
- study system: UniProtKB P07949
- Sequence (P07949 29-1114): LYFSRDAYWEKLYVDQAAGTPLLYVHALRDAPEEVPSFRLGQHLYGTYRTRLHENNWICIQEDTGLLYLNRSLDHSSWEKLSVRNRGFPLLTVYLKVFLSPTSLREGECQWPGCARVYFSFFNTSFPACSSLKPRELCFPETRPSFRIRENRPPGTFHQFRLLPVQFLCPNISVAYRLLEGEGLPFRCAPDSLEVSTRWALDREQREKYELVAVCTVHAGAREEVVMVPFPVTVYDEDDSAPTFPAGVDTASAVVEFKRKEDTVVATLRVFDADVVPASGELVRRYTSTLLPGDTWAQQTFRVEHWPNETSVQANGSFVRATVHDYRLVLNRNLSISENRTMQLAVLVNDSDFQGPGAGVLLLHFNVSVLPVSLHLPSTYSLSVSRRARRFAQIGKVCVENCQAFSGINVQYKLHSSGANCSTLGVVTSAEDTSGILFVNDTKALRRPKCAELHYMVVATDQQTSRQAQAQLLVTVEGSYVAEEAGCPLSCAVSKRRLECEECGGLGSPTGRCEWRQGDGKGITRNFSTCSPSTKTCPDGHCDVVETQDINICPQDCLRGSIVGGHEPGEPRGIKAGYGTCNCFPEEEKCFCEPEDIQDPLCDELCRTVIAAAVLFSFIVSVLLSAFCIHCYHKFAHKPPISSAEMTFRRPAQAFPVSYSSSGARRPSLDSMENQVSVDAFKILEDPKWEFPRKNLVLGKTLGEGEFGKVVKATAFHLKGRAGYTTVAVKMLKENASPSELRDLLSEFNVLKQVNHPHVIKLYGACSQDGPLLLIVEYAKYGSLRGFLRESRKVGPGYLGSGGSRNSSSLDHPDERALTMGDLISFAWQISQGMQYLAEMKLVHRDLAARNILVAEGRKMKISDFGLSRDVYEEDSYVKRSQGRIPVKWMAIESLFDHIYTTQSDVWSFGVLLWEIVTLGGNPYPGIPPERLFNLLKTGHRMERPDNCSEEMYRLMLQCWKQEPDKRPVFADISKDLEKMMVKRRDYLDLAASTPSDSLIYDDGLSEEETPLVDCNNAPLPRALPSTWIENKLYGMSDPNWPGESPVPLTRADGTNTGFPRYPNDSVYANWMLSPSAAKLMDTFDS
Write down the numeric answer in nM and omit the unit.

# count of solved cases: 3
CC(C)(O)c1ccc(-c2cc(-c3ccc(N4C[C@@H]5[C@@H](CNC(=O)c6ncccc6Cl)[C@@H]5C4)nc3)c3c(C#N)cnn3c2)nc1: 0.8
COc1ccc(CN2C3CC2CN(c2ccc(-c4cc(-c5ccc(C(C)(C)O)cn5)cn5ncc(C#N)c45)cn2)C3)cn1: 0.58
COc1ccc(CN2C3CC2CN(c2ccc(-c4cc(-c5ccc(C(C)(C)NC(C)=O)cn5)cn5ncc(C#N)c45)cn2)C3)cn1: 0.4

// fetch UniProtKB P07949 IC50 for COc1ccc(CN2C3CC2CN(c2ccc(-c4cc(-c5ccc(C6(O)CC6)cn5)cn5ncc(C#N)c45)cn2)C3)cn1
0.6

Notebook entry, UniProtKB P07949 assay: IC50 of CCC(=O)c1ccc(-c2cc(-c3ccc(N4CC5CC(C4)N5Cc4ccc(OC)nc4)nc3)c3c(C#N)cnn3c2)nc1 = ?
0.7

* * *

- study system: human Aurora B kinase (Homo sapiens)
- Sequence (Q96GD4 whole entry): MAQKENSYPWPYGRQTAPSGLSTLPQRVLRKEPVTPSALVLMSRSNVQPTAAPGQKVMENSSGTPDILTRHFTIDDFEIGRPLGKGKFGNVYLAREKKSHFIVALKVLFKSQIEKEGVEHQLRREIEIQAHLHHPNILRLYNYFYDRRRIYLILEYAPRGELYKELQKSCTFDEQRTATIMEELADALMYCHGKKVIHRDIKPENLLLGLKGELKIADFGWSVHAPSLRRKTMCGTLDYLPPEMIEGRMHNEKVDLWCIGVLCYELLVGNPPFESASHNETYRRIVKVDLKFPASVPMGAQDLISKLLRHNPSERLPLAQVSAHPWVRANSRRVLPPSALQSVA
- Sequence (Q9NQS7 803-918 partner limits assumed): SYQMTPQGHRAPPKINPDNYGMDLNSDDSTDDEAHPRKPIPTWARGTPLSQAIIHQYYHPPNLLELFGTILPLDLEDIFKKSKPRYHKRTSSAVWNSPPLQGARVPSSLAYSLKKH
measured endpoint: pIC50
Value format note: pIC50 is -log10 of concentration (mol/L); just state the number.

Examples with their reported pIC50 follow.
COc1ccc(CN2C3CC2CN(c2ccc(-c4cc(-c5ccc(C(C)(C)O)nc5)cn5ncc(C#N)c45)cn2)C3)cn1: 7.35
CC(C)(O)c1ccc(-c2cc(-c3ccc(N4C[C@@H]5[C@@H](CNC(=O)c6ncccc6Cl)[C@@H]5C4)nc3)c3c(C#N)cnn3c2)nc1: 7.71
COc1ccc(CN2C3CC2CN(c2ccc(-c4cc(-c5ccc(C6(O)CC6)cn5)cn5ncc(C#N)c45)cn2)C3)cn1: 7.18

Can you look up pIC50 on human Aurora B kinase (Homo sapiens) for COc1ccc(CN2C3CC2CN(c2ccc(-c4cc(-c5ccc(C(C)(C)O)cn5)cn5ncc(C#N)c45)cn2)C3)cn1 ?
7.10

Item CCC(=O)c1ccc(-c2cc(-c3ccc(N4CC5CC(C4)N5Cc4ccc(OC)nc4)nc3)c3c(C#N)cnn3c2)nc1 with human Aurora B kinase (Homo sapiens) - pIC50?
6.86

* * *

Entries with their measured IC50, system human Aurora B kinase (Homo sapiens):

COc1ccc(CN2C3CC2CN(c2ccc(-c4cc(-c5cc(C(C)(C)O)n(C)n5)cn5ncc(C#N)c45)cn2)C3)cn1 [Example 4]: 128 nM
COc1ccc(CN2C3CC2CN(c2ccc(-c4cc(-c5ncc(C(C)(C)O)cn5)cn5ncc(C#N)c45)cn2)C3)cn1 [Example 13]: 183 nM
COc1ccc(CN2C3CC2CN(c2ccc(-c4cc(-c5ccc(C(C)(C)NC(C)=O)cn5)cn5ncc(C#N)c45)cn2)C3)cn1 [Example 12]: 25.2 nM

--- query ---
Item: COc1ccc(CN2C3CC2CN(c2ccc(-c4cc(-c5cnc(C(C)(C)O)nc5)cn5ncc(C#N)c45)cn2)C3)cn1 [Example 10] Test system: human Aurora B kinase (Homo sapiens) Read-out: IC50 Value: ?
743 nM

* * *

Measured pIC50, listed per entry.
- Test system: BAF3 cells
- protocol: BAF3 Cell Proliferation Assay (CellTiter-Glo, without RET driven, IL-3)
- Type: cell-based
- test settings: Mus musculus; growth inhibition in BAF3 cells, 72 hours, with IL-3; read-out: BAF3 Cellular Activity
Here pIC50 is given on a logarithmic scale as minus log10 of the concentration in mol/L.

Use these answered entries as a reference point.
COc1ccc(CN2C3CC2CN(c2cnc(-c4cc(-c5ccc(C(C)(C)O)nn5)cn5ncc(C#N)c45)cn2)C3)cn1: 5.83
COc1ccc(CN2C3CC2CN(c2ccc(-c4cc(-c5ccc(C(C)(C)N)cn5)cn5ncc(C#N)c45)cn2)C3)cn1: 5.97
COc1ccc(CN2C3CC2CN(c2ccc(-c4cc(-c5ccc(OCC(C)(C)O)nc5)cn5ncc(C#N)c45)cn2)C3)cn1: 5.59
COc1ccc(CN2C3CC2CN(c2ccc(-c4cc(-c5cnn(CC(C)(C)O)c5)cn5ncc(C#N)c45)cn2)C3)cn1: 6.47
COc1ccc(CN2C3CC2CN(c2ccc(-c4cc(-c5ccc(C(C)(C)N)nc5)cn5ncc(C#N)c45)cn2)C3)cn1: 6.00

Now look at this one.
What measured pIC50 goes with COc1ccc(CN2C3CC2CN(c2ccc(-c4cc(-c5cnc(C(C)(C)O)cn5)cn5ncc(C#N)c45)cn2)C3)cn1 ?
5.59
